Tested on: 354836-022-R-J1-PDC multicell spheroid viability
RUN DESCRIPTION: Anticancer human tumor 354836-022-R-J1-PDC patient-derived head and neck squamous cell carcinoma cell line growth inhibition [PI3K]
TEST CONDITIONS: second compound 10 µM; first compound 0.0316 µM; active compounds read low
Measured viability, T/C values are reported for all entries that follow.
Please state the figure in %; there is no need to write the unit.

{"MOLECULE": "CC(C)n1nc(-c2ccc3oc(N)nc3c2)c2c(N)ncnc21 + Cc1nc(NC(=O)N2CCCC2C(N)=O)sc1-c1ccnc(C(C)(C)C(F)(F)F)c1", "EXPERIMENTAL RESULT": 15.2}
{"MOLECULE": "CNC(=O)c1ccc(N2C(=S)N(c3ccc(C#N)c(C(F)(F)F)c3)C(=O)C2(C)C)cc1F + Cc1nc(NC(=O)N2CCCC2C(N)=O)sc1-c1ccnc(C(C)(C)C(F)(F)F)c1", "EXPERIMENTAL RESULT": 35.1}
{"MOLECULE": "CC(C)NCC(C(=O)N1CCN(c2ncnc3c2C(C)CC3O)CC1)c1ccc(Cl)cc1 (stereo not given) + Cc1nc(NC(=O)N2CCCC2C(N)=O)sc1-c1ccnc(C(C)(C)C(F)(F)F)c1", "EXPERIMENTAL RESULT": 34.4}

Moving on to the next molecule.
So the reported viability, T/C for CCCS(=O)(=O)Nc1ccc(F)c(C(=O)c2c[nH]c3ncc(-c4ccc(Cl)cc4)cc23)c1F + Cc1nc(NC(=O)N2CCCC2C(N)=O)sc1-c1ccnc(C(C)(C)C(F)(F)F)c1 , on 354836-022-R-J1-PDC multicell spheroid viability, turned out to be 39.6

---

System: 354836-022-R-J1-PDC multicell spheroid viability
RUN DESCRIPTION: Anticancer human tumor 354836-022-R-J1-PDC cell line growth inhibition [PI3K];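 further: spheroids exposed to agents for seven days before the viability read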
TEST CONDITIONS: second compound 0.01 µM; first compound 3.16 µM; active compounds read low
Lab note: compare viability, T/C with 90%, writing 1.0 if less and 0.0 if equal or more.

Some solved entries appear below for comparison.
{"COMPOUND": "Cn1nccc1Nc1nccc(-c2ccn(C(CO)c3ccc(Cl)c(F)c3)c(=O)c2)n1 (stereo unspecified) + CC(Nc1ccc2c(c1)OCCn1cc(N3C(=O)OCC3C(F)F)nc1-2)C(N)=O", "CLASS LABEL": 0.0}
{"COMPOUND": "CNC(=O)c1ccc(N2C(=S)N(c3ccc(C#N)c(C(F)(F)F)c3)C(=O)C2(C)C)cc1F + COc1c(OCCCN2CCOCC2)ccc2c3n(c(=NC(=O)c4cnc(N)nc4)nc12)CCN3", "CLASS LABEL": 0.0}
{"COMPOUND": "C[C@@H](NC(=O)c1ncnc(N)c1Cl)c1ncc(C(=O)Nc2cc(C(F)(F)F)c(Cl)cn2)s1 + COc1c(OCCCN2CCOCC2)ccc2c3n(c(=NC(=O)c4cnc(N)nc4)nc12)CCN3", "CLASS LABEL": 0.0}
{"COMPOUND": "CC(Cn1ccc(-c2ccc(C#N)c(Cl)c2)n1)NC(=O)c1cc(C(C)O)[nH]n1 (stereo unspecified) + COc1c(OCCCN2CCOCC2)ccc2c3n(c(=NC(=O)c4cnc(N)nc4)nc12)CCN3", "CLASS LABEL": 0.0}
{"COMPOUND": "C=CC(=O)N1CCN(c2nc(=O)n(-c3c(C)ccnc3C(C)C)c3nc(-c4c(O)cccc4F)c(F)cc23)C(C)C1 (stereo unspecified) + COc1c(OCCCN2CCOCC2)ccc2c3n(c(=NC(=O)c4cnc(N)nc4)nc12)CCN3", "CLASS LABEL": 0.0}

Request: In the record for CC1(C)CCC(Nc2ncc(C(F)(F)F)c(-c3c[nH]c4c(P(C)(C)=O)c(C#N)ccc34)n2)CN1 (stereo unspecified) + COc1c(OCCCN2CCOCC2)ccc2c3n(c(=NC(=O)c4cnc(N)nc4)nc12)CCN3 , is viability, T/C less than 90%?
Response: 1.0

Request: Hello, is viability, T/C of the following compound strictly smaller than 90%? CC1(C)CCC(Nc2ncc(C(F)(F)F)c(-c3c[nH]c4c(P(C)(C)=O)c(C#N)ccc34)n2)CN1 (stereo unspecified) + CC(Nc1ccc2c(c1)OCCn1cc(N3C(=O)OCC3C(F)F)nc1-2)C(N)=O
Response: 1.0
